Assay summary: in vivo
Run conditions: Swiss Webster, mouse, po, 10 mg/kg, primaquine concentrations in plasma (Cmax), variation among animals
Measurement name: Cmax

Ask: Record request: Cmax value, item COc1cc(NC(C)CCCN)c2ncccc2c1 (stereo not shown) [Pq, primaquine diphosphate]
Result: 400 to 2000 ng/mL

###

Assay summary: in vivo
Run conditions: Swiss Webster, mouse, po, 10 mg/kg
Measurement name: Tmax (min)
# value in min; strip the unit string

Ask: Record request: Tmax value, item COc1cc(NC(C)CCCN)c2ncccc2c1 (stereo not shown) [Pq, primaquine diphosphate]
Result: 30
